- measurement.protocol: Solubility (dissolved, centrifuged, HPLC peak integrated relative to a tyrosine standard)
- Assay type: physicochemical
- assay.setup: water; read-out: soluble in water
property.name: solubility

Q: Data request, read-out solubility, for NC(=O)[C@@H]1C[C@@]2(CN1)NC(=O)[C@@H]1C[C@@]3(CN1C2=O)NC(=O)[C@@H]1C[C@@]2(CN1C3=O)NC(=O)[C@H](Cc1ccc(O)cc1)NC2=O
Ans: > 5000 µg/mL
